Data origin: ChEMBL document CHEMBL4229523

Exercise: state measured Activity for each of the compounds provided.
- TEST_DETAILS: Antioxidant activity assessed as trolox equivalent of hydroxyl radical scavenging activity by DMPO spin trap-based ESR spectrometric method
- Format: functional
# unit: equiv | format: bare number

Challenge: Any idea what its Activity is? The compound is CC1CCC(C(C)C)C(O)C1 (stereo not given)
Response given: 0.49

Challenge: Any idea what its Activity is? The compound is Cc1ccc(C(C)C)c(O)c1
Response given: 0.3

Challenge: Any idea what its Activity is? The compound is NCCCNCCSP(=O)(O)O
Response given: 0.76

Challenge: Any idea what its Activity is? The compound is C=CC(C)(O)CCC=C(C)C (stereo not given)
Response given: 0.38

Challenge: Any idea what its Activity is? The compound is NCCS
Response given: 1.5

----------
- TEST_DETAILS: Antioxidant activity assessed as trolox equivalent of methyl radical scavenging activity by DMPO spin trap-based ESR spectrometric method
- Format: functional
MEASURED_PARAMETER: Activity (equiv)
# unit: equiv | format: bare number

Challenge: Any idea what its Activity is? The compound is NCCCNCCSP(=O)(O)O
Response given: 0.2

Challenge: Any idea what its Activity is? The compound is NCCS
Response given: 0.18

Challenge: Any idea what its Activity is? The compound is CC1CCC(C(C)C)C(O)C1 (stereo not given)
Response given: 0

Challenge: Any idea what its Activity is? The compound is C=CC(C)(O)CCC=C(C)C (stereo not given)
Response given: 0

Challenge: Any idea what its Activity is? The compound is Cc1ccc(C(C)C)c(O)c1
Response given: 0
